Where do these numbers come from? They come from patent US20100178658A1.

Target: Aβ peptide (1-42) ion channels (Homo sapiens, UniProt P05067)
Construct: purchased Innovagen, Lund, SE or Bachem Bioscience Inc., King of Prussia, Pa., USA
Sequence (P05067 672-713 limits assumed): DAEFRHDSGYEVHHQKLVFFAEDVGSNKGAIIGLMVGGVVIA
Assay: Electrophysiological planar lipid bilayer assay for Aβ peptide ion channel activity (bilayer chambers, voltage clamp)
Format: biochemical
Conditions: electrophysiological screening assay of FIGS. 3-5
experimental-endpoint: Inhibition of Aβ pores / ion channel activity of Aβ

compound=Nc1c(/N=N/c2ccc(-c3ccc(/N=N/c4cc(S(=O)(=O)O)c5ccccc5c4N)cc3)cc2)cc(S(=O)(=O)O)c2ccccc12 result="inhibit Aβ pores"
compound="CN1CCC[C@H]1c1cccnc1 [nicotine, (−)Nicotine hemisulfate]" result="inhibit Aβ pores"
compound=NCCc1ccc(O)c(O)c1 result="inhibit Aβ pores"
